Test system: corn
Assay method text: Test C pre-/postemergence herbicide test
Format: in vivo, Zea mays
Settings: 62 g ai/ha; preemergence; scale 0 to 100

Structure smiles: CCNC(=O)c1cccc(NC(=O)c2sc(C(C)(C)C)nc2C)c1
Plant response rating, Corn: 0

Structure smiles: C=CCNC(=O)c1cccc(NC(=O)c2sc(C(C)(C)C)nc2CC)c1
Plant response rating, Corn: 0

Structure smiles: CCNC(=O)c1cccc(NC(=O)c2nn(C(C)(C)C)nc2C)c1
Plant response rating, Corn: 30

Structure smiles: Cc1nn(C(C)(C)C)nc1C(=O)Nc1cccc(C(=O)N2CC=CC2)c1
Plant response rating, Corn: 55

Structure smiles: CCn1nc(C(C)(C)C)cc1C(=O)Nc1cccc(OC(F)F)c1
Plant response rating, Corn: 0

Structure smiles: CCn1nc(C(C)(C)C)cc1C(=O)Nc1cc(C(=S)N(C)C)ccc1F
Plant response rating, Corn: 55

Structure smiles: CCNC(=O)c1cccc(NC(=O)c2cc(C3(C)CC3)nn2CC)c1
Plant response rating, Corn: 5

Structure smiles: CCc1nn(C(C)(C)C)cc1C(=O)Nc1cc(C(=O)N(CC)CC)ccc1F
Plant response rating, Corn: 0

###

The entries below come with measured Rice plant response rating values attached.
Test system: rice
Assay method text: Test C flooded paddy test
Format: in vivo, Oryza sativa
Settings: 62 g ai/ha, scale 0 to 100 (0 no effect, 100 complete control)

Structure smiles: CCn1nc(C(C)(C)C)cc1C(=O)Nc1cccc(C(=O)N2CCCC2)n1
Rice plant response rating: 25
--
Structure smiles: CCNC(=O)c1cc(NC(=O)c2cc(C(C)(C)C)nn2CC)ccc1F
Rice plant response rating: 0
--
Structure smiles: C=Cn1nc(C(C)(C)C)cc1C(=O)Nc1cccc(C(C)=O)c1
Rice plant response rating: 20
--
Structure smiles: CCn1nc(C(C)(C)C)cc1C(=O)Nc1cccc(C(N)=O)n1
Rice plant response rating: 55
--
Structure smiles: CC(=NO)c1cccc(NC(=O)c2cc(C(C)(C)C)nn2CCF)c1
Rice plant response rating: 55

###

Parameter Barnyardgrass plant response rating: see the listing below.
Tested on: barnyardgrass
Assay method text: Test A pre-/postemergence herbicide test
Format: in vivo, Echinochloa crus-galli
Settings: preemergence, 500 g ai/ha; visual injury, 0 to 100 scale (0 no effect, 100 complete control)
Text: […] Plants ranged in height from 2 to 10 cm and were in the one- to two-leaf stage for the postemergence treatment. Treated plants and untreated controls were maintained in a greenhouse for approximately ten days, after which time all treated plants were compared to untreated controls and visually evaluated for injury. […]
Outcome measure: Barnyardgrass plant response rating

Molecule: CCNC(=O)c1cccc(NC(=O)c2sc(C(C)(C)C)nc2CC)n1 [Compound 213]
Tested target: barnyardgrass
Measurement: 40
--
Molecule: CCNC(=O)c1cccc(NC(=O)c2sc(C(C)(C)C)nc2CC)c1 [Compound 210]
Tested target: barnyardgrass
Measurement: 85
--
Molecule: CCc1nn(C(C)(C)C)cc1C(=S)Nc1cc(C(=S)N(C)C)ccc1F [Compound 453]
Tested target: barnyardgrass
Measurement: 45
--
Molecule: CCn1nc(C(C)(C)C)nc1C(=O)Nc1cccc(C(=O)N(C)C)c1 [Compound 448]
Tested target: barnyardgrass
Measurement: 100
--
Molecule: CCn1nc(C(C)(C)C)cc1C(=O)Nc1cc(C(=O)N(C)C)c(F)cc1F [Compound 270]
Tested target: barnyardgrass
Measurement: 60
--
Molecule: CCc1nn(C(C)(C)C)cc1C(=O)Nc1cc(C(=O)N(CC)CC)ccc1F [Compound 223]
Tested target: barnyardgrass
Measurement: 55
